Target: cAMP-dependent protein kinase type II-beta regulatory subunit (Homo sapiens) (UniProt P31323)
Sequence (P31323 whole entry, looked up): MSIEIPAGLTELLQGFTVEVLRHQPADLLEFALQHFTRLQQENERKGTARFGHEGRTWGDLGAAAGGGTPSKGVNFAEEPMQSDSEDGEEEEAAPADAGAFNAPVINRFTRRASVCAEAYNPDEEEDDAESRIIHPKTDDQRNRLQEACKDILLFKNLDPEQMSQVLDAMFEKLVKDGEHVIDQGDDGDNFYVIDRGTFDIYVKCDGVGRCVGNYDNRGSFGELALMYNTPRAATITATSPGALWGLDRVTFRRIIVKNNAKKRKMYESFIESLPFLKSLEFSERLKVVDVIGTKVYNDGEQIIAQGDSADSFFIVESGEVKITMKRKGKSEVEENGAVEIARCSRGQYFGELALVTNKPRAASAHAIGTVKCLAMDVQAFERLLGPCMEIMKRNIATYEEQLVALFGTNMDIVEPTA
Assay: activators of PKA-R2B holoenzyme, confirmation, biochemical, fluorescence polarization, human (AID 504797)
Conditions: PKA-R2B complex, at 11.4 µM, active compounds read high
Some of the results follow. Residues, ends and D or L forms follow the SMILES beside them.
TEST_READOUT: activation (%)
State the answer as a number, implicitly in %.

Consider the following illustrative entries.
{"COMPOUND": "COc1ccc(C/C(C)=N/NC(=O)c2ccncc2)cc1", "TEST_READOUT": "activation", "MEASUREMENT": 0.21}
{"COMPOUND": "O=C(CN(C(=O)CCC(=O)Nc1nccs1)c1ccc(F)cc1)NCc1ccc2c(c1)OCO2", "TEST_READOUT": "activation", "MEASUREMENT": 3.19}
{"COMPOUND": "O=C(CCCN1C(=O)c2cccc3cccc(c23)C1=O)N1CCN(Cc2ccc3c(c2)OCO3)CC1", "TEST_READOUT": "activation", "MEASUREMENT": -2.59}

Need activation, item COc1ccc([N+](=O)[O-])cc1C1NN=C(c2cccc3ccccc23)S1 (stereo not given) 1.59

Please look up its activation: O=C(CNC(=O)c1ccccc1)NCC(=O)OCC(=O)c1ccccc1 (HELM PEPTIDE1{[O=C(c1ccccc1)[*:2]].G.G.[O=C(CO[*:1])c1ccccc1]}$$$$V2.0) 3.61

====

Target: cAMP-dependent protein kinase type II-beta regulatory subunit (Homo sapiens) (UniProt P31323)
Assay: activators of PKA-R2B holoenzyme, confirmation, biochemical, fluorescence polarization, human (AID 504797)
Conditions: PKA-R2B complex, at 11.4 µM, active compounds read high
Some of the results follow.
Reported activation values follow for various compounds
Kindly answer with a numeric value in %, unit omitted.

{"STRUCTURE_NOTATION": "CCCC(=O)Nc1ncnc2c1ncn2[C@@H]1O[C@@H]2OP(=O)(O)OC[C@H]2[C@H]1OC(=O)CCC", "activation (%)": 36.6}
{"STRUCTURE_NOTATION": "CC(C)(C)c1nnc(N/N=C/c2ccc(O)cc2)n(N)c1=O", "activation (%)": 3.54}

Next:
Look up activation for this compound: O=S(=O)(NCCNS(=O)(=O)c1ccccc1)c1ccccc1 4.44
